Where do these numbers come from? They come from PubChem BioAssay AID2060907.

tested on: 388556-164-R-J1-PDC complex spheroid viability; assay: Anticancer human tumor 388556-164-R-J1-PDC patient-derived colon adenocarcinoma cell line growth inhibition [RAS]; conditions: second compound 3.16 µM; first compound 3.16 µM; stronger effect = lower value
Criterion: viability, T/C strictly under 50%. Met: true (1). Not met: false (0).

>>> class_assignment("NC1c2ccccc2OC12CCN(c1cnc3c(N4CCCc5ncccc54)n[nH]c3n1)CC2 (stereo not drawn) + C#Cc1c(F)ccc2cc(O)cc(-c3ncc4c(N5CC6CCC(C5)N6)nc(OCC56CCCN5CC(F)C6)nc4c3F)c12")
"true (1)"
>>> class_assignment("CC(Nc1ccc2c(c1)OCCn1cc(N3C(=O)OCC3C(F)F)nc1-2)C(N)=O (stereo not drawn) + C#Cc1c(F)ccc2cc(O)cc(-c3ncc4c(N5CC6CCC(C5)N6)nc(OCC56CCCN5CC(F)C6)nc4c3F)c12")
"false (0)"
>>> class_assignment("CC(C)NCC(C(=O)N1CCN(c2ncnc3c2C(C)CC3O)CC1)c1ccc(Cl)cc1 (stereo not drawn) + C#Cc1c(F)ccc2cc(O)cc(-c3ncc4c(N5CC6CCC(C5)N6)nc(OCC56CCCN5CC(F)C6)nc4c3F)c12")
"false (0)"
>>> class_assignment("CC(=O)OC12COC1CC(O)C1(C)C(=O)C(O)C3=C(C)C(OC(=O)C(O)C(NC(=O)OC(C)(C)C)c4ccccc4)CC(O)(C(OC(=O)c4ccccc4)C21)C3(C)C (stereo not drawn) + C#Cc1c(F)ccc2cc(O)cc(-c3ncc4c(N5CC6CCC(C5)N6)nc(OCC56CCCN5CC(F)C6)nc4c3F)c12")
"false (0)"
>>> class_assignment("CCC(CC)c1cc(NC2CCC(N)C2)n2nccc2n1 (stereo not drawn) + C#Cc1c(F)ccc2cc(O)cc(-c3ncc4c(N5CC6CCC(C5)N6)nc(OCC56CCCN5CC(F)C6)nc4c3F)c12")
"true (1)"
>>> class_assignment("Cc1nc(N2CCC3(CC2)COC(C)C3N)c(CO)nc1Sc1ccnc(N)c1Cl (stereo not drawn) + C#Cc1c(F)ccc2cc(O)cc(-c3ncc4c(N5CC6CCC(C5)N6)nc(OCC56CCCN5CC(F)C6)nc4c3F)c12")
"true (1)"
>>> class_assignment("C[C@@H](NC(=O)c1ncnc(N)c1Cl)c1ncc(C(=O)Nc2cc(C(F)(F)F)c(Cl)cn2)s1 + C#Cc1c(F)ccc2cc(O)cc(-c3ncc4c(N5CC6CCC(C5)N6)nc(OCC56CCCN5CC(F)C6)nc4c3F)c12")
"false (0)"
>>> class_assignment("CC1(O)CCCC1n1c(=O)c(C(F)F)cc2cnc(NC3CCN(S(C)(=O)=O)CC3)nc21 (stereo not drawn) + C#Cc1c(F)ccc2cc(O)cc(-c3ncc4c(N5CC6CCC(C5)N6)nc(OCC56CCCN5CC(F)C6)nc4c3F)c12")
"false (0)"

---

test system: 388556-164-R-J1-PDC complex spheroid viability; test: Anticancer human tumor 388556-164-R-J1-PDC cell line growth inhibition [RAS]; details: second compound 0.0949 µM; first compound 0.0316 µM; stronger effect = lower value;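 further: spheroids exposed to compound for 7 days before readout; 100% = DMSO vehicle control luminescence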
Criterion: viability, T/C strictly under 40%. Met: condition met. Not met: condition not met.

>>> class_assignment("CCC(CC)c1cc(NC2CCC(N)C2)n2nccc2n1 (stereo not drawn) + CCn1c(-c2cccnc2C(C)OC)c2c3cc(ccc31)N1CCOC(CC(NC(=O)C(C(C)C)N(C)C(=O)C3(F)CCN(C(=O)C#CC(C)(C)N(C)C)CC3)C(=O)N3CCCC(N3)C(=O)OCC(C)(C)C2)C1")
"condition not met"
>>> class_assignment("C[C@@H](NC(=O)c1ncnc(N)c1Cl)c1ncc(C(=O)Nc2cc(C(F)(F)F)c(Cl)cn2)s1 + CCn1c(-c2cc(N3CCN(C)CC3)cnc2C(C)OC)c2c3cc(ccc31)-c1csc(n1)CC(NC(=O)C1CC1C)C(=O)N1CCCC(N1)C(=O)OCC(C)(C)C2")
"condition not met"
>>> class_assignment("O=C(c1ccc(F)c(F)c1Nc1ccc(I)cc1F)N1CC(O)([C@@H]2CCCCN2)C1 + CCn1c(-c2cc(N3CCN(C)CC3)cnc2C(C)OC)c2c3cc(ccc31)-c1csc(n1)CC(NC(=O)C1CC1C)C(=O)N1CCCC(N1)C(=O)OCC(C)(C)C2")
"condition met"
>>> class_assignment("O=C(c1ccc(F)c(F)c1Nc1ccc(I)cc1F)N1CC(O)([C@@H]2CCCCN2)C1 + CCn1c(-c2cccnc2C(C)OC)c2c3cc(ccc31)N1CCOC(CC(NC(=O)C(C(C)C)N(C)C(=O)C3(F)CCN(C(=O)C#CC(C)(C)N(C)C)CC3)C(=O)N3CCCC(N3)C(=O)OCC(C)(C)C2)C1")
"condition not met"
>>> class_assignment("CC(C)NCC(C(=O)N1CCN(c2ncnc3c2C(C)CC3O)CC1)c1ccc(Cl)cc1 (stereo not drawn) + CCn1c(-c2cc(N3CCN(C)CC3)cnc2C(C)OC)c2c3cc(ccc31)-c1csc(n1)CC(NC(=O)C1CC1C)C(=O)N1CCCC(N1)C(=O)OCC(C)(C)C2")
"condition not met"
>>> class_assignment("CC(=O)OC12COC1CC(O)C1(C)C(=O)C(O)C3=C(C)C(OC(=O)C(O)C(NC(=O)OC(C)(C)C)c4ccccc4)CC(O)(C(OC(=O)c4ccccc4)C21)C3(C)C (stereo not drawn) + CCn1c(-c2cc(N3CCN(C)CC3)cnc2C(C)OC)c2c3cc(ccc31)-c1csc(n1)CC(NC(=O)C1CC1C)C(=O)N1CCCC(N1)C(=O)OCC(C)(C)C2")
"condition not met"

---

test system: 388556-164-R-J1-PDC complex spheroid viability; assay: Anticancer human tumor 388556-164-R-J1-PDC cell line growth inhibition [RAS]; details: second compound 0.3 µM; first compound 1 µM; stronger effect = lower value;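 further: spheroids exposed to compound for 7 days before readout; 100% = DMSO vehicle control luminescence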
Criterion: viability, T/C strictly under 30%. Met: fulfilled. Not met: not fulfilled.

>>> class_assignment("Cc1nc(N2CCC3(CC2)COC(C)C3N)c(CO)nc1Sc1ccnc(N)c1Cl (stereo not given) + CCn1c(-c2cccnc2C(C)OC)c2c3cc(ccc31)N1CCOC(CC(NC(=O)C(C(C)C)N(C)C(=O)C3(F)CCN(C(=O)C#CC(C)(C)N(C)C)CC3)C(=O)N3CCCC(N3)C(=O)OCC(C)(C)C2)C1")
"not fulfilled"
>>> class_assignment("CCN1CCN(Cc2ccc(Nc3ncc(F)c(-c4cc(F)c5nc(C)n(C(C)C)c5c4)n3)nc2)CC1 + CCn1c(-c2cc(N3CCN(C)CC3)cnc2C(C)OC)c2c3cc(ccc31)-c1csc(n1)CC(NC(=O)C1CC1C)C(=O)N1CCCC(N1)C(=O)OCC(C)(C)C2")
"not fulfilled"
>>> class_assignment("CC(Nc1ccc2c(c1)OCCn1cc(N3C(=O)OCC3C(F)F)nc1-2)C(N)=O (stereo not given) + CCn1c(-c2cccnc2C(C)OC)c2c3cc(ccc31)N1CCOC(CC(NC(=O)C(C(C)C)N(C)C(=O)C3(F)CCN(C(=O)C#CC(C)(C)N(C)C)CC3)C(=O)N3CCCC(N3)C(=O)OCC(C)(C)C2)C1")
"not fulfilled"
>>> class_assignment("C[C@@H](NC(=O)c1ncnc(N)c1Cl)c1ncc(C(=O)Nc2cc(C(F)(F)F)c(Cl)cn2)s1 + CCn1c(-c2cc(N3CCN(C)CC3)cnc2C(C)OC)c2c3cc(ccc31)-c1csc(n1)CC(NC(=O)C1CC1C)C(=O)N1CCCC(N1)C(=O)OCC(C)(C)C2")
"not fulfilled"
>>> class_assignment("O=C(c1ccc(F)c(F)c1Nc1ccc(I)cc1F)N1CC(O)([C@@H]2CCCCN2)C1 + CCn1c(-c2cc(N3CCN(C)CC3)cnc2C(C)OC)c2c3cc(ccc31)-c1csc(n1)CC(NC(=O)C1CC1C)C(=O)N1CCCC(N1)C(=O)OCC(C)(C)C2")
"fulfilled"
>>> class_assignment("CC(=O)OC12COC1CC(O)C1(C)C(=O)C(O)C3=C(C)C(OC(=O)C(O)C(NC(=O)OC(C)(C)C)c4ccccc4)CC(O)(C(OC(=O)c4ccccc4)C21)C3(C)C (stereo not given) + CCn1c(-c2cccnc2C(C)OC)c2c3cc(ccc31)N1CCOC(CC(NC(=O)C(C(C)C)N(C)C(=O)C3(F)CCN(C(=O)C#CC(C)(C)N(C)C)CC3)C(=O)N3CCCC(N3)C(=O)OCC(C)(C)C2)C1")
"not fulfilled"
>>> class_assignment("C=CC(=O)Nc1cc(Nc2nccc(-c3cn(C)c4ccccc34)n2)c(OC)cc1N(C)CCN(C)C + CCn1c(-c2cc(N3CCN(C)CC3)cnc2C(C)OC)c2c3cc(ccc31)-c1csc(n1)CC(NC(=O)C1CC1C)C(=O)N1CCCC(N1)C(=O)OCC(C)(C)C2")
"fulfilled"
>>> class_assignment("C=CC(=O)Nc1cc(Nc2nccc(-c3cn(C)c4ccccc34)n2)c(OC)cc1N(C)CCN(C)C + CCn1c(-c2cccnc2C(C)OC)c2c3cc(ccc31)N1CCOC(CC(NC(=O)C(C(C)C)N(C)C(=O)C3(F)CCN(C(=O)C#CC(C)(C)N(C)C)CC3)C(=O)N3CCCC(N3)C(=O)OCC(C)(C)C2)C1")
"not fulfilled"
>>> class_assignment("NC1c2ccccc2OC12CCN(c1cnc3c(N4CCCc5ncccc54)n[nH]c3n1)CC2 (stereo not given) + CCn1c(-c2cc(N3CCN(C)CC3)cnc2C(C)OC)c2c3cc(ccc31)-c1csc(n1)CC(NC(=O)C1CC1C)C(=O)N1CCCC(N1)C(=O)OCC(C)(C)C2")
"fulfilled"
>>> class_assignment("CCC(CC)c1cc(NC2CCC(N)C2)n2nccc2n1 (stereo not given) + CCn1c(-c2cc(N3CCN(C)CC3)cnc2C(C)OC)c2c3cc(ccc31)-c1csc(n1)CC(NC(=O)C1CC1C)C(=O)N1CCCC(N1)C(=O)OCC(C)(C)C2")
"fulfilled"
>>> class_assignment("C=CC(=O)N1CCN(c2nc(OCC3CCCN3C)nc3c(F)c(-c4nc(N)cc(C)c4C(F)(F)F)c(Cl)cc23)C(C)C1 (stereo not given) + CCn1c(-c2cc(N3CCN(C)CC3)cnc2C(C)OC)c2c3cc(ccc31)-c1csc(n1)CC(NC(=O)C1CC1C)C(=O)N1CCCC(N1)C(=O)OCC(C)(C)C2")
"not fulfilled"
>>> class_assignment("Nc1ccn(C2OC(CO)C(O)C2(F)F)c(=O)n1 (stereo not given) + CCn1c(-c2cc(N3CCN(C)CC3)cnc2C(C)OC)c2c3cc(ccc31)-c1csc(n1)CC(NC(=O)C1CC1C)C(=O)N1CCCC(N1)C(=O)OCC(C)(C)C2")
"fulfilled"
>>> class_assignment("CC1(O)CCCC1n1c(=O)c(C(F)F)cc2cnc(NC3CCN(S(C)(=O)=O)CC3)nc21 (stereo not given) + CCn1c(-c2cc(N3CCN(C)CC3)cnc2C(C)OC)c2c3cc(ccc31)-c1csc(n1)CC(NC(=O)C1CC1C)C(=O)N1CCCC(N1)C(=O)OCC(C)(C)C2")
"not fulfilled"
>>> class_assignment("CCC(CC)c1cc(NC2CCC(N)C2)n2nccc2n1 (stereo not given) + CCn1c(-c2cccnc2C(C)OC)c2c3cc(ccc31)N1CCOC(CC(NC(=O)C(C(C)C)N(C)C(=O)C3(F)CCN(C(=O)C#CC(C)(C)N(C)C)CC3)C(=O)N3CCCC(N3)C(=O)OCC(C)(C)C2)C1")
"not fulfilled"
